TESTED_SYSTEM: Thromboxane-A synthase (Homo sapiens, UniProt P24557)
TEST_DESCRIPTION: Tested for 50% inhibition of thromboxane synthase (TxS) in human platelets (in vitro)
Give measured IC50 for each item. Keep answers brief.
Give bare numbers, in µM.

Observe how each entry below is paired with its result.
{"columns": ["SMILES_CODE", "UNIT", "READOUT_VALUE"],
 "data": [
  ["Cn1c(-c2cccnc2)c(CCCCCC(=O)NCCCC[C@H](N[C@@H]2CCc3ccccc3N(CC(=O)O)C2=O)C(=O)O)c2cc(Cl)ccc21", "µM", 0.004],
  ["CNCCN(CCCC[C@H](N[C@H]1CCc2ccccc2N(CC(=O)[O-])C1=O)C(=O)[O-])C(=O)CCCCCc1c(-c2cccnc2)n(C)c2ccc(Cl)cc12.[Na+].[Na+]", "µM", 0.018]
]}

Switching to the query record.
Q) Give IC50 (Thromboxane-A synthase (Homo sapiens, UniProt P24557)) of the following compound: `Cc1c(-c2cccnc2)n(CCCCCCCC(=O)O[C@@H]2C[C@H](N[C@@H](CCc3ccccc3)C(=O)O)C(=O)N(CC(=O)O)c3ccccc32)c2ccccc12`
A) 0.02

###

TESTED_SYSTEM: UniProt:P24557
Sequence (P24557 whole entry): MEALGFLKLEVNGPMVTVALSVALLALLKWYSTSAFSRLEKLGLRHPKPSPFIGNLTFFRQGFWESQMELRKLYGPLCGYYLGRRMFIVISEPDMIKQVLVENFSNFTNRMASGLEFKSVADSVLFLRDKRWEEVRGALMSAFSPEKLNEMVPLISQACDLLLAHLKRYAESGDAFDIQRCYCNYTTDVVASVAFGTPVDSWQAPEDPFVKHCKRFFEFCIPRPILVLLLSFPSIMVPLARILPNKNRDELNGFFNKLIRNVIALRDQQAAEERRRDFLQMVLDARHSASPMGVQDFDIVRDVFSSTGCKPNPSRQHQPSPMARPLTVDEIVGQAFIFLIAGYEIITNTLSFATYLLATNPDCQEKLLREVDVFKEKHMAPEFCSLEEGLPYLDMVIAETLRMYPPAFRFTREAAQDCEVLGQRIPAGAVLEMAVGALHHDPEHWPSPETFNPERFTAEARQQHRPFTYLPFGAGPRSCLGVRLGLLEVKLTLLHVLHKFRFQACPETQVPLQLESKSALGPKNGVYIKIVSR
TEST_DESCRIPTION: Tested for 50% inhibition of thromboxane synthase (TxS) in human platelets (in vitro)
VALUE_KIND: IC50 (nM)
Numbers only, in nM.

{"columns": ["COMPOUND", "IC50, nM"],
 "data": [
  ["Cc1c(-c2cccnc2)n(CCCCP(=O)(O)O)c2ccccc12", 100]
]}

For each of the items listed, what is its IC50?
1. Cn1c(-c2cccnc2)c(CCCCCC(=O)NCCNCCCC[C@H](N[C@H]2CCc3ccccc3N(CC(=O)[O-])C2=O)C(=O)[O-])c2cc(Cl)ccc21.[K+].[K+]
2. CCOP(=O)(O)CCCCn1c(-c2cccnc2)c(C)c2ccccc21.Cl
3. Cc1c(-c2cccnc2)n(CCCCP(=O)(O)OC2CCc3ccccc3N(CC(=O)O)C2=O)c2ccccc12 (stereo not given)
4. Cn1c(-c2cccnc2)c(CCCCCC(=O)N2CCC(NCCCC[C@H](N[C@@H]3CCc4ccccc4N(CC(=O)[O-])C3=O)C(=O)[O-])CC2)c2cc(Cl)ccc21.[Na+].[Na+]

A)
10
9
20
20

###

TESTED_SYSTEM: Angiotensin-converting enzyme (Oryctolagus cuniculus, UniProt P12822)
Sequence (P12822 whole entry): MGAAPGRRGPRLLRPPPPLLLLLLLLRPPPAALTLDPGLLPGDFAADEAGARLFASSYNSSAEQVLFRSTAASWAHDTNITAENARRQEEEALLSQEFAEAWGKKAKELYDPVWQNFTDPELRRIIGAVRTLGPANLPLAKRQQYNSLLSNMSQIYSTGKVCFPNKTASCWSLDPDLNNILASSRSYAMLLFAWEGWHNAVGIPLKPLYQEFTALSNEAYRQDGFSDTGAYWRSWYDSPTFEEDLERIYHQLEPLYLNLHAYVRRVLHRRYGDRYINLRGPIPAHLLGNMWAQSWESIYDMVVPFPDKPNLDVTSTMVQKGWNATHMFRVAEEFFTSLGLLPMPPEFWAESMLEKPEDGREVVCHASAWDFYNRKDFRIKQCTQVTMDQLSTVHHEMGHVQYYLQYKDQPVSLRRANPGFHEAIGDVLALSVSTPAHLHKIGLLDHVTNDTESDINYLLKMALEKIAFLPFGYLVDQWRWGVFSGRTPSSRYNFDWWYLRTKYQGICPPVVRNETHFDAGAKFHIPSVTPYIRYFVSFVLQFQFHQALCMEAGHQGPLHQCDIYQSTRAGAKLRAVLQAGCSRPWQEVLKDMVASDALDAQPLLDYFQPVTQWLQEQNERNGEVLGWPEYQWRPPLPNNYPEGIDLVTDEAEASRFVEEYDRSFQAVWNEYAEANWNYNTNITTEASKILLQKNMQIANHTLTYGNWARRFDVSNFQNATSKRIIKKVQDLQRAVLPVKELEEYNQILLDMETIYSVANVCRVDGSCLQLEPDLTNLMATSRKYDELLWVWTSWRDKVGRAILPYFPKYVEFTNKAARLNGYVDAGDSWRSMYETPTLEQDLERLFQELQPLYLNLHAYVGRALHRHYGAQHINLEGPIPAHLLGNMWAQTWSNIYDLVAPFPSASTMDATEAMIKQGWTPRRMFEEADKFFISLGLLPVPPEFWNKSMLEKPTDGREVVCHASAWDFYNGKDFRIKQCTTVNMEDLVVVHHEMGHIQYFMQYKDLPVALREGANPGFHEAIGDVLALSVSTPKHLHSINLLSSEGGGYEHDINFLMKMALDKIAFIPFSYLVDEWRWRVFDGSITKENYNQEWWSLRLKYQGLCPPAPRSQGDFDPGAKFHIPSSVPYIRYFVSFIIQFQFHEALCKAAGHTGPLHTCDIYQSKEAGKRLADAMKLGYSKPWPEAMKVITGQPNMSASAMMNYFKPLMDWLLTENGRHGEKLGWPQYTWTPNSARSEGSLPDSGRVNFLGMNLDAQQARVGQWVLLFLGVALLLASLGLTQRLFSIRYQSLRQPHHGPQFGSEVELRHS
TEST_DESCRIPTION: Tested for 50% inhibition of Angiotensin converting enzyme(ACE) obtained from rabbit lung (in vitro)
Give measured IC50 for each item. Keep answers brief.
Give bare numbers, in nM.

For each of the items listed, what is its IC50?
1. O=C(O)CN1C(=O)[C@@H](N[C@@H](CCCCNCCO)C(=O)O)CCc2ccccc21
2. NCCCC[C@H](N[C@@H]1CCc2ccccc2N(CC(=O)O)C1=O)C(=O)O
3. Cn1c(-c2cccnc2)c(CCCCCC(=O)N(CCO)CCCC[C@H](N[C@H]2CCc3ccccc3N(CC(=O)O)C2=O)C(=O)O)c2cc(Cl)ccc21
4. Cn1c(-c2cccnc2)c(CCCCCC(=O)NCCCC[C@H](N[C@@H]2CCc3ccccc3N(CC(=O)O)C2=O)C(=O)O)c2cc(Cl)ccc21
5. O=C(O)C(CCCCc1cccc2cncn12)CCC(=O)N1c2ccccc2C[C@H]1C(=O)O (stereo not given in full)

A)
1. 7
2. 7
3. 10
4. 6
5. 20

For each of the items listed, what is its IC50?
1. Cc1c(-c2cccnc2)n(CCCCP(=O)(O)OC2CCc3ccccc3N(CC(=O)O)C2=O)c2ccccc12 (stereo not given)
2. Cc1c(-c2cccnc2)n(CCCCCCCC(=O)O[C@@H]2C[C@H](N[C@@H](CCc3ccccc3)C(=O)O)C(=O)N(CC(=O)O)c3ccccc32)c2ccccc12
3. O=C(O)CN1C(=O)[C@@H](N[C@@H](CCc2ccccc2)C(=O)O)C[C@@H](O)c2ccccc21
4. CC(=O)O[C@@H]1C[C@H](N[C@@H](CCc2ccccc2)C(=O)O)C(=O)N(CC(=O)O)c2ccccc21

A)
30
90
8
6

Q) What value of measured IC50 is listed for `CNCCN(CCCC[C@H](N[C@H]1CCc2ccccc2N(CC(=O)[O-])C1=O)C(=O)[O-])C(=O)CCCCCc1c(-c2cccnc2)n(C)c2ccc(Cl)cc12.[Na+].[Na+]` ?
A) 10

###

TESTED_SYSTEM: Angiotensin-converting enzyme (Oryctolagus cuniculus, UniProt P12822)
TEST_DESCRIPTION: Tested for 50% inhibition of Angiotensin converting enzyme(ACE) obtained from rabbit lung (in vitro); Not active
VALUE_KIND: IC50

Observe how each entry below is paired with its result.
{"columns": ["SMILES_CODE", "TESTED_SYSTEM", "READOUT_VALUE"],
 "data": [
  ["Cn1c(-c2cccnc2)c(CCCCCC(=O)O)c2cc(Cl)ccc21", "Angiotensin-converting enzyme (Oryctolagus cuniculus, UniProt P12822)", "Not Active"],
  ["CCOP(=O)(O)CCCCn1c(-c2cccnc2)c(C)c2ccccc21.Cl", "Angiotensin-converting enzyme (Oryctolagus cuniculus, UniProt P12822)", "Not Active"],
  ["Cc1c(-c2cccnc2)n(CCCCP(=O)(O)O)c2ccccc12", "Angiotensin-converting enzyme (Oryctolagus cuniculus, UniProt P12822)", "Not Active"],
  ["Cc1c(-c2cccnc2)n(CCCCCCCC(=O)O)c2ccccc12", "Angiotensin-converting enzyme (Oryctolagus cuniculus, UniProt P12822)", "Not Active"]
]}

Switching to the query record.
Q) What value of measured IC50 is listed for `Cc1c(-c2cccnc2)n(CCCCC(=O)O)c2ccccc12` ?
A) Not Active

Source listed as ChEMBL document CHEMBL1127543.
